src = patent US20050170481A1

System: (D)-2-hydroxy-acid oxidase (enzyme of the present invention)
Assay: Oxidase reaction activity (H2O2 / 4-AA / TOOS / POD, absorbance at 555 nm), substrate specificity
Format: biochemical, Arthrobacter sp. KNK-GA1 strain
Conditions: Table 2; Substrate 10 mM, 30° C., 100 seconds
Endpoint Name: Relative activity (%)

>  <Compound>
CC(C)CC(O)C(=O)O (racemic) [DL-2-hydroxyisocaproic acid]

>  <Endpoint Name>
Relative activity (%)

>  <Experimental Result>
10%

$$$$
>  <Compound>
O=C(O)CC(O)C(=O)O (racemic)

>  <Endpoint Name>
Relative activity (%)

>  <Experimental Result>
0%

$$$$
>  <Compound>
C[C@@H](O)C(=O)O

>  <Endpoint Name>
Relative activity (%)

>  <Experimental Result>
82%

$$$$
>  <Compound>
CC(O)CO (centres unmarked)

>  <Endpoint Name>
Relative activity (%)

>  <Experimental Result>
0%

$$$$
>  <Compound>
C[C@H](O)C(=O)O

>  <Endpoint Name>
Relative activity (%)

>  <Experimental Result>
0%

$$$$
>  <Compound>
O=C(O)CCO [β-hydroxypropionic acid]

>  <Endpoint Name>
Relative activity (%)

>  <Experimental Result>
1%

$$$$
>  <Compound>
CCCCC(O)C(=O)O (racemic) [DL-2-hydroxycaproic acid]

>  <Endpoint Name>
Relative activity (%)

>  <Experimental Result>
7%

$$$$
>  <Compound>
CCC(O)C(=O)O (racemic) [DL-2-hydroxybutyric acid]

>  <Endpoint Name>
Relative activity (%)

>  <Experimental Result>
42%

$$$$
>  <Compound>
CCCC(O)C(=O)O (racemic) [DL-2-hydroxyvaleric acid]

>  <Endpoint Name>
Relative activity (%)

>  <Experimental Result>
32%

$$$$
>  <Compound>
CC(C)C[C@H](O)C(=O)O [L-2-hydroxyisocaproic acid]

>  <Endpoint Name>
Relative activity (%)

>  <Experimental Result>
0%

$$$$
>  <Compound>
CCO

>  <Endpoint Name>
Relative activity (%)

>  <Experimental Result>
0%

$$$$
